- Tested on: UT-SCC-28
- Procedure details: maximal % inhibition of viability relative to DMSO; higher = stronger effect
- Measurement setup: culture condition: plastic 2D (no matrix); treatment time: 3 days
Test readout: maximal % inhibition of viability (%)

INSERT INTO assay_data (mol_smiles, unit_info, readout_value) VALUES
  ('COc1ncc(-c2ccc3nccc(-c4ccnnc4)c3c2)cc1NS(=O)(=O)c1ccc(F)cc1F', '%', 60.8),
  ('COc1ccc(-c2cc3c(C)nc(N)nc3n([C@H]3CC[C@H](OCCO)CC3)c2=O)cn1', '%', 56.8),
  ('Cc1c(CN2CCN(C(=O)[C@H](C)O)CC2)sc2c(N3CCOCC3)nc(-c3cnc(N)nc3)nc12', '%', 68.4),
  ('O=C(NC[C@H](O)CO)c1ccncc1Nc1ccc(I)cc1F', '%', 32.7),
  ('CO[C@H]1C[C@@H]2CC[C@@H](C)[C@@](O)(O2)C(=O)C(=O)N2CCCC[C@H]2C(=O)O[C@H]([C@H](C)C[C@@H]2CC[C@@H](OCCO)[C@H](OC)C2)CC(=O)[C@H](C)/C=C(\C)[C@@H](O)[C@@H](OC)C(=O)[C@H](C)C[C@H](C)/C=C/C=C/C=C/1C', '%', 28.1);

###

- System: UT-SCC-42B
- Procedure details: drug sensitivity score (DSS); higher = more sensitive; extreme values may be limits of the assay
- Measurement setup: culture condition: on top of Matrigel; treatment time: 3 days
Measured drug sensitivity score accompanies every entry in the list below.
Test readout: drug sensitivity score (DSS)

INSERT INTO results (compound, unit_info, readout_value) VALUES
  ('Cn1cnc2c(F)c(Nc3ccc(Br)cc3F)c(C(=O)NOCCO)cc21 [Binimetinib]', 'DSS', 7.13),
  ('Cn1c(=O)c(F)c(Nc2ccc(I)cc2F)c2c(=O)n(C[C@@H](O)CO)cnc21 [TAK-733]', 'DSS', 12.4),
  ('Cn1c(=O)n(-c2ccc(C(C)(C)C#N)cc2)c2c3cc(-c4cnc5ccccc5c4)ccc3ncc21 [Dactolisib]', 'DSS', 0),
  ('CO[C@H]1C[C@@H]2CC[C@@H](C)[C@@](O)(O2)C(=O)C(=O)N2CCCC[C@H]2C(=O)O[C@H]([C@H](C)C[C@@H]2CC[C@@H](OP(C)(C)=O)[C@H](OC)C2)CC(=O)[C@H](C)/C=C(\C)[C@@H](O)[C@@H](OC)C(=O)[C@H](C)C[C@H](C)/C=C/C=C/C=C/1C [Ridaforolimus]', 'DSS', 0.233),
  ('CO[C@H]1C[C@@H]2CC[C@@H](C)[C@@](O)(O2)C(=O)C(=O)N2CCCC[C@H]2C(=O)O[C@H]([C@H](C)C[C@@H]2CC[C@@H](O)[C@H](OC)C2)CC(=O)[C@H](C)/C=C(\C)[C@@H](O)[C@@H](OC)C(=O)[C@H](C)C[C@H](C)/C=C/C=C/C=C/1C [Sirolimus]', 'DSS', 3.07),
  ('COc1ccc(-c2cc3c(C)nc(N)nc3n([C@H]3CC[C@H](OCCO)CC3)c2=O)cn1', 'DSS', 1.8),
  ('COc1ncc(-c2ccc3nccc(-c4ccnnc4)c3c2)cc1NS(=O)(=O)c1ccc(F)cc1F [Omipalisib]', 'DSS', 18.3);

###

- System: UT-SCC-8
- Procedure details: drug sensitivity score (DSS); higher = more sensitive; extreme values may be limits of the assay
- Measurement setup: culture condition: plastic 2D (no matrix); treatment time: 3 days
Items are presented alongside their recorded drug sensitivity score.
Test readout: drug sensitivity score (DSS)

INSERT INTO assay_data (compound, readout_value) VALUES
  ('COc1cc2ncnc(Nc3ccc(F)c(Cl)c3)c2cc1OCCCN1CCOCC1 [Gefitinib]', 5.97),
  ('Cn1cnc2c(F)c(Nc3ccc(Br)cc3F)c(C(=O)NOCCO)cc21 [Binimetinib]', 3.83),
  ('COc1ncc(-c2ccc3nccc(-c4ccnnc4)c3c2)cc1NS(=O)(=O)c1ccc(F)cc1F [Omipalisib]', 25);

###

- Test system: UT-SCC-40
- Procedure details: maximal % inhibition of viability relative to DMSO; higher = stronger effect
- Measurement setup: culture condition: on top of Matrigel; treatment time: 3 days
Rule: maximal % inhibition of viability below 80% gives satisfied. Equal to or above 80% gives not satisfied.

INSERT INTO measurements (mol_smiles, class_assignment) VALUES
  ('CC(=O)Nc1cccc(-n2c(=O)n(C3CC3)c(=O)c3c(Nc4ccc(I)cc4F)n(C)c(=O)c(C)c32)c1', 'satisfied'),
  ('CO[C@H]1C[C@@H]2CC[C@@H](C)[C@@](O)(O2)C(=O)C(=O)N2CCCC[C@H]2C(=O)O[C@H]([C@H](C)C[C@@H]2CC[C@@H](O)[C@H](OC)C2)CC(=O)[C@H](C)/C=C(\C)[C@@H](O)[C@@H](OC)C(=O)[C@H](C)C[C@H](C)/C=C/C=C/C=C/1C', 'not satisfied'),
  ('C=CC(=O)Nc1cc2c(Nc3ccc(F)c(Cl)c3)ncnc2cc1OCCCN1CCOCC1', 'not satisfied'),
  ('Cn1cnc2c(F)c(Nc3ccc(Br)cc3Cl)c(C(=O)NOCCO)cc21', 'satisfied'),
  ('COc1ccc(-c2cc3c(C)nc(N)nc3n([C@H]3CC[C@H](OCCO)CC3)c2=O)cn1', 'not satisfied'),
  ('COc1ncc(-c2ccc3nccc(-c4ccnnc4)c3c2)cc1NS(=O)(=O)c1ccc(F)cc1F', 'not satisfied'),
  ('CO[C@H]1C[C@@H]2CC[C@@H](C)[C@@](O)(O2)C(=O)C(=O)N2CCCC[C@H]2C(=O)O[C@H]([C@H](C)C[C@@H]2CC[C@@H](OC(=O)C(C)(CO)CO)[C@H](OC)C2)CC(=O)[C@H](C)/C=C(\C)[C@@H](O)[C@@H](OC)C(=O)[C@H](C)C[C@H](C)/C=C/C=C/C=C/1C', 'satisfied'),
  ('Cn1cnc2c(F)c(Nc3ccc(Br)cc3F)c(C(=O)NOCCO)cc21', 'satisfied'),
  ('CO[C@H]1C[C@@H]2CC[C@@H](C)[C@@](O)(O2)C(=O)C(=O)N2CCCC[C@H]2C(=O)O[C@H]([C@H](C)C[C@@H]2CC[C@@H](OP(C)(C)=O)[C@H](OC)C2)CC(=O)[C@H](C)/C=C(\C)[C@@H](O)[C@@H](OC)C(=O)[C@H](C)C[C@H](C)/C=C/C=C/C=C/1C', 'satisfied'),
  ('COc1cc(F)c(F)c(Nc2ccc(I)cc2F)c1NS(=O)(=O)C1(C[C@H](O)CO)CC1', 'satisfied'),
  ('C#Cc1cccc(Nc2ncnc3cc(OCCOC)c(OCCOC)cc23)c1', 'satisfied'),
  ('Cn1c(=O)n(-c2ccc(C(C)(C)C#N)cc2)c2c3cc(-c4cnc5ccccc5c4)ccc3ncc21', 'satisfied'),
  ('CO[C@H]1C[C@@H]2CC[C@@H](C)[C@@](O)(O2)C(=O)C(=O)N2CCCC[C@H]2C(=O)O[C@H]([C@H](C)C[C@@H]2CC[C@@H](OCCO)[C@H](OC)C2)CC(=O)[C@H](C)/C=C(\C)[C@@H](O)[C@@H](OC)C(=O)[C@H](C)C[C@H](C)/C=C/C=C/C=C/1C', 'satisfied');

###

The following compounds are shown together with reported relative IC50 values.
- System: UT-SCC-106A
- Procedure details: relative IC50 (midpoint of the fitted curve; maximal inhibition may be below 50%); higher = less potent
- Measurement setup: culture condition: embedded in Myogel + collagen I; treatment time: 3 days
Test readout: relative IC50 (nM)

INSERT INTO measurements (mol_smiles, target_of_assay, unit_info, comparative_sign, readout_value) VALUES
  ('C=CC(=O)Nc1cc2c(Nc3ccc(F)c(Cl)c3)ncnc2cc1OCCCN1CCOCC1', 'UT-SCC-106A', 'nM', '=', 2830),
  ('COc1ncc(-c2ccc3nccc(-c4ccnnc4)c3c2)cc1NS(=O)(=O)c1ccc(F)cc1F', 'UT-SCC-106A', 'nM', '=', 10.1),
  ('Cc1c(CN2CCN(C(=O)[C@H](C)O)CC2)sc2c(N3CCOCC3)nc(-c3cnc(N)nc3)nc12', 'UT-SCC-106A', 'nM', '=', 862),
  ('CN(C)C/C=C/C(=O)Nc1cc2c(Nc3ccc(F)c(Cl)c3)ncnc2cc1O[C@H]1CCOC1', 'UT-SCC-106A', 'nM', '>', 989),
  ('O=C(NC[C@H](O)CO)c1ccncc1Nc1ccc(I)cc1F', 'UT-SCC-106A', 'nM', '=', 491);

###

- System: UT-SCC-24A
- Procedure details: maximal % inhibition of viability relative to DMSO; higher = stronger effect
- Measurement setup: culture condition: on top of Matrigel; treatment time: 3 days
Each record here notes measured maximal % inhibition of viability.
Test readout: maximal % inhibition of viability (%)

INSERT INTO measurements (molecule, readout_value) VALUES
  ('CO[C@H]1C[C@@H]2CC[C@@H](C)[C@@](O)(O2)C(=O)C(=O)N2CCCC[C@H]2C(=O)O[C@H]([C@H](C)C[C@@H]2CC[C@@H](OP(C)(C)=O)[C@H](OC)C2)CC(=O)[C@H](C)/C=C(\C)[C@@H](O)[C@@H](OC)C(=O)[C@H](C)C[C@H](C)/C=C/C=C/C=C/1C [Ridaforolimus]', 29.4),
  ('COc1cc(F)c(F)c(Nc2ccc(I)cc2F)c1NS(=O)(=O)C1(C[C@H](O)CO)CC1 [Refametinib]', 80.4),
  ('CO[C@H]1C[C@@H]2CC[C@@H](C)[C@@](O)(O2)C(=O)C(=O)N2CCCC[C@H]2C(=O)O[C@H]([C@H](C)C[C@@H]2CC[C@@H](OC(=O)C(C)(CO)CO)[C@H](OC)C2)CC(=O)[C@H](C)/C=C(\C)[C@@H](O)[C@@H](OC)C(=O)[C@H](C)C[C@H](C)/C=C/C=C/C=C/1C [Temsirolimus]', 33.3),
  ('Cn1c(=O)c(F)c(Nc2ccc(I)cc2F)c2c(=O)n(C[C@@H](O)CO)cnc21 [TAK-733]', 77.7),
  ('Cn1cnc2c(F)c(Nc3ccc(Br)cc3Cl)c(C(=O)NOCCO)cc21 [Selumetinib]', 76.7),
  ('COc1ncc(-c2ccc3nccc(-c4ccnnc4)c3c2)cc1NS(=O)(=O)c1ccc(F)cc1F [Omipalisib]', 92),
  ('C#Cc1cccc(Nc2ncnc3cc(OCCOC)c(OCCOC)cc23)c1 [Erlotinib]', 50.9),
  ('Cn1cnc2c(F)c(Nc3ccc(Br)cc3F)c(C(=O)NOCCO)cc21 [Binimetinib]', 72.5),
  ('CO[C@H]1C[C@@H]2CC[C@@H](C)[C@@](O)(O2)C(=O)C(=O)N2CCCC[C@H]2C(=O)O[C@H]([C@H](C)C[C@@H]2CC[C@@H](OCCO)[C@H](OC)C2)CC(=O)[C@H](C)/C=C(\C)[C@@H](O)[C@@H](OC)C(=O)[C@H](C)C[C@H](C)/C=C/C=C/C=C/1C [Everolimus]', 31.5),
  ('COc1ccc(-c2cc3c(C)nc(N)nc3n([C@H]3CC[C@H](OCCO)CC3)c2=O)cn1', 71.5),
  ('Cc1c(CN2CCN(C(=O)[C@H](C)O)CC2)sc2c(N3CCOCC3)nc(-c3cnc(N)nc3)nc12 [Apitolisib]', 87.7),
  ('CC(=O)Nc1cccc(-n2c(=O)n(C3CC3)c(=O)c3c(Nc4ccc(I)cc4F)n(C)c(=O)c(C)c32)c1 [Trametinib]', 69.5),
  ('Cn1c(=O)n(-c2ccc(C(C)(C)C#N)cc2)c2c3cc(-c4cnc5ccccc5c4)ccc3ncc21 [Dactolisib]', 14.7),
  ('O=C(NC[C@H](O)CO)c1ccncc1Nc1ccc(I)cc1F [Pimasertib]', 81.4),
  ('C=CC(=O)Nc1cc2c(Nc3ccc(F)c(Cl)c3)ncnc2cc1OCCCN1CCOCC1 [Canertinib]', 99.7),
  ('CO[C@H]1C[C@@H]2CC[C@@H](C)[C@@](O)(O2)C(=O)C(=O)N2CCCC[C@H]2C(=O)O[C@H]([C@H](C)C[C@@H]2CC[C@@H](O)[C@H](OC)C2)CC(=O)[C@H](C)/C=C(\C)[C@@H](O)[C@@H](OC)C(=O)[C@H](C)C[C@H](C)/C=C/C=C/C=C/1C [Sirolimus]', 71.6),
  ('CN(C)C/C=C/C(=O)Nc1cc2c(Nc3ccc(F)c(Cl)c3)ncnc2cc1O[C@H]1CCOC1 [Afatinib]', 68.2);
